assay: hygroscopicity experiments of various salts; type: physicochemical; conditions: 25° C. ± 1° C.; relative humidity 69% ± 2%; 1 h
MEASURE_NAME: Status

{"columns": ["COMPOUND", "MEASURE_NAME", "VAL"],
 "data": [
  ["CCN(CC)CCCCC1C(=O)[O][Pt]2([NH][C@@H]3CCCC[C@H]3[NH]2)[O]C1=O.O=C(O)/C=C/C(=O)O (stereo partly shown) [Fumarate salt]", "Status", "Viscous"],
  ["CCN(CC)CCCCC1C(=O)[O][Pt]2([NH][C@@H]3CCCC[C@H]3[NH]2)[O]C1=O.O=C(O)[C@H](O)[C@@H](O)C(=O)O (stereo partly drawn) [L(+) tartrate salt]", "Status", "Viscous"],
  ["CCN(CC)CCCCC1C(=O)[O][Pt]2([NH][C@@H]3CCCC[C@H]3[NH]2)[O]C1=O.Cc1ccc(S(=O)(=O)O)cc1 (stereo partly shown) [Tosylate salt]", "Status", "Viscous"],
  ["CCN(CC)CCCCC1C(=O)[O][Pt]2([NH][C@@H]3CCCC[C@H]3[NH]2)[O]C1=O.CS(=O)(=O)O (stereo partly shown) [Mesylate salt]", "Status", "Viscous"]
]}

* * *

test: hygroscopicity experiments of various salts; type: physicochemical; details: 25° C. ± 1° C.; relative humidity 69% ± 2%; 24 h
Reported Hygroscopicity values follow for various compounds
Give a bare numeral; the unit % is implied.

A selection of reference data follows.
{"columns": ["COMPOUND", "UNIT_ANNOTATION", "Hygroscopicity"],
 "data": [
  ["CCN(CC)CCCCC1C(=O)[O][Pt]2([NH][C@@H]3CCCC[C@H]3[NH]2)[O]C1=O.CS(=O)(=O)O (stereo partly shown) [Mesylate salt]", "%", 13.89],
  ["CCN(CC)CCCCC1C(=O)[O][Pt]2([NH][C@@H]3CCCC[C@H]3[NH]2)[O]C1=O.Cc1ccc(S(=O)(=O)O)cc1 (stereo partly shown) [Tosylate salt]", "%", 9.86],
  ["CCN(CC)CCCCC1C(=O)[O][Pt]2([NH][C@@H]3CCCC[C@H]3[NH]2)[O]C1=O.O=C(O)[C@H](O)[C@@H](O)C(=O)O (stereo partly drawn) [L(+) tartrate salt]", "%", 12.79]
]}

Task: Sample CCN(CC)CCCCC1C(=O)[O][Pt]2([NH][C@@H]3CCCC[C@H]3[NH]2)[O]C1=O.O=C(O)/C=C/C(=O)O (stereo partly shown) [Fumarate salt] — what was its Hygroscopicity?
Result: 13.90

* * *

assay: hygroscopicity experiments of various salts; format: physicochemical; details: 25° C. ± 1° C.; relative humidity 44% ± 2%; 24 h
MEASURE_NAME: Hygroscopicity (%)
Give a bare numeral; the unit % is implied.

A selection of reference data follows.
{"columns": ["MOLECULE", "MEASURE_NAME", "VAL"],
 "data": [
  ["CCN(CC)CCCCC1C(=O)[O][Pt]2([NH][C@@H]3CCCC[C@H]3[NH]2)[O]C1=O.O=C(O)[C@H](O)[C@@H](O)C(=O)O (stereo partly drawn) [L(+) tartrate salt]", "Hygroscopicity", 9.76],
  ["CCN(CC)CCCCC1C(=O)[O][Pt]2([NH][C@@H]3CCCC[C@H]3[NH]2)[O]C1=O.O=C(O)/C=C/C(=O)O (stereo partly shown) [Fumarate salt]", "Hygroscopicity", 10.83]
]}

Task: Sample CCN(CC)CCCCC1C(=O)[O][Pt]2([NH][C@@H]3CCCC[C@H]3[NH]2)[O]C1=O.Cc1ccc(S(=O)(=O)O)cc1 (stereo partly shown) [Tosylate salt] — what was its Hygroscopicity?
Result: 8.78

Task: Same thing, different molecule: CCN(CC)CCCCC1C(=O)[O][Pt]2([NH][C@@H]3CCCC[C@H]3[NH]2)[O]C1=O.CS(=O)(=O)O (stereo partly shown) [Mesylate salt]
Result: 9.89

* * *

assay: hygroscopicity experiments of various salts; assay type: physicochemical; conditions: 25° C. ± 1° C.; relative humidity 44% ± 2%; 24 h
MEASURE_NAME: Status

{"columns": ["COMPOUND", "MEASURE_NAME", "VAL"],
 "data": [
  ["CCN(CC)CCCCC1C(=O)[O][Pt]2([NH][C@@H]3CCCC[C@H]3[NH]2)[O]C1=O.Cc1ccc(S(=O)(=O)O)cc1 (stereo partly shown) [Tosylate salt]", "Status", "Light"],
  ["CCN(CC)CCCCC1C(=O)[O][Pt]2([NH][C@@H]3CCCC[C@H]3[NH]2)[O]C1=O.O=C(O)[C@H](O)[C@@H](O)C(=O)O (stereo partly drawn) [L(+) tartrate salt]", "Status", "Light gray"],
  ["CCN(CC)CCCCC1C(=O)[O][Pt]2([NH][C@@H]3CCCC[C@H]3[NH]2)[O]C1=O.O=C(O)/C=C/C(=O)O (stereo partly shown) [Fumarate salt]", "Status", "Semi-"],
  ["CCN(CC)CCCCC1C(=O)[O][Pt]2([NH][C@@H]3CCCC[C@H]3[NH]2)[O]C1=O.CS(=O)(=O)O (stereo partly shown) [Mesylate salt]", "Status", "Light gray"]
]}

* * *

Reported Hygroscopicity values follow for various compounds
assay: hygroscopicity experiments of various salts; assay type: physicochemical; details: 25° C. ± 1° C.; relative humidity 44% ± 2%; 1 h
Give a bare numeral; the unit % is implied.

{"columns": ["COMPOUND", "VAL"],
 "data": [
  ["CCN(CC)CCCCC1C(=O)[O][Pt]2([NH][C@@H]3CCCC[C@H]3[NH]2)[O]C1=O.CS(=O)(=O)O (stereo partly shown) [Mesylate salt]", 4.98],
  ["CCN(CC)CCCCC1C(=O)[O][Pt]2([NH][C@@H]3CCCC[C@H]3[NH]2)[O]C1=O.Cc1ccc(S(=O)(=O)O)cc1 (stereo partly shown) [Tosylate salt]", 4.56],
  ["CCN(CC)CCCCC1C(=O)[O][Pt]2([NH][C@@H]3CCCC[C@H]3[NH]2)[O]C1=O.O=C(O)[C@H](O)[C@@H](O)C(=O)O (stereo partly drawn) [L(+) tartrate salt]", 4.88]
]}

Next, consider the following compound.
Task: Sample CCN(CC)CCCCC1C(=O)[O][Pt]2([NH][C@@H]3CCCC[C@H]3[NH]2)[O]C1=O.O=C(O)/C=C/C(=O)O (stereo partly shown) [Fumarate salt] — what was its Hygroscopicity?
Result: 5.87

* * *

assay: hygroscopicity experiments of various salts; assay type: physicochemical; details: 25° C. ± 1° C.; relative humidity 69% ± 2%; 1 h
Reported Hygroscopicity values follow for various compounds
Give a bare numeral; the unit % is implied.

A selection of reference data follows.
{"columns": ["COMPOUND", "Hygroscopicity, %"],
 "data": [
  ["CCN(CC)CCCCC1C(=O)[O][Pt]2([NH][C@@H]3CCCC[C@H]3[NH]2)[O]C1=O.O=C(O)/C=C/C(=O)O (stereo partly shown) [Fumarate salt]", 6.83],
  ["CCN(CC)CCCCC1C(=O)[O][Pt]2([NH][C@@H]3CCCC[C@H]3[NH]2)[O]C1=O.O=C(O)[C@H](O)[C@@H](O)C(=O)O (stereo partly drawn) [L(+) tartrate salt]", 5.78],
  ["CCN(CC)CCCCC1C(=O)[O][Pt]2([NH][C@@H]3CCCC[C@H]3[NH]2)[O]C1=O.CS(=O)(=O)O (stereo partly shown) [Mesylate salt]", 6.37]
]}

Next, consider the following compound.
Task: Sample CCN(CC)CCCCC1C(=O)[O][Pt]2([NH][C@@H]3CCCC[C@H]3[NH]2)[O]C1=O.Cc1ccc(S(=O)(=O)O)cc1 (stereo partly shown) [Tosylate salt] — what was its Hygroscopicity?
Result: 5.30

* * *

assay: hygroscopicity experiments of various salts; format: physicochemical; conditions: 25° C. ± 1° C.; relative humidity 69% ± 2%; 24 h

{"columns": ["COMPOUND", "Status"],
 "data": [
  ["CCN(CC)CCCCC1C(=O)[O][Pt]2([NH][C@@H]3CCCC[C@H]3[NH]2)[O]C1=O.O=C(O)[C@H](O)[C@@H](O)C(=O)O (stereo partly drawn) [L(+) tartrate salt]", "Light"],
  ["CCN(CC)CCCCC1C(=O)[O][Pt]2([NH][C@@H]3CCCC[C@H]3[NH]2)[O]C1=O.O=C(O)/C=C/C(=O)O (stereo partly shown) [Fumarate salt]", "Semi-"],
  ["CCN(CC)CCCCC1C(=O)[O][Pt]2([NH][C@@H]3CCCC[C@H]3[NH]2)[O]C1=O.Cc1ccc(S(=O)(=O)O)cc1 (stereo partly shown) [Tosylate salt]", "Light"]
]}

Data origin: patent US11661434B2
